- Test system: clinical S. aureus isolate LMY45
- run description: MIC and MBC testing, broth microdilution
- Assay type: cell-based, Staphylococcus aureus
- test parameters: Staphylococcus aureus; LMY45; read-out: MBC
For each entry below, report its MBC value.
Give bare numbers, in µg/mL.

Hey, quick one: what's MBC for each of these?
1. [H]/N=C(\N)NN=C1CCCc2cc(OCc3ccc(F)cc3F)ccc21
2. [H]/N=C(\N)NN=C1CCCc2cc(OCCCCCCCC)ccc21
3. [H]/N=C(\N)NN=C1CCCc2cc(OCc3cccc(Br)c3)ccc21

1. 4
2. 4
3. 4

###

- System: clinical S. aureus isolate LMY48
- run description: MIC and MBC testing, broth microdilution
- Format: cell-based, Staphylococcus aureus
- test parameters: Staphylococcus aureus; LMY48; read-out: MBC
measured attribute: MBC (µg/mL)
Give bare numbers, in µg/mL.

Sample records with MBC:
[H]/N=C(\N)NN=C1CCCc2cc(OCc3ccc(F)cc3F)ccc21: 4
[H]/N=C(\N)NN=C1CCCc2cc(OCc3ccc(Br)cc3)ccc21: 8
[H]/N=C(\N)NN=C1CCCc2cc(OCc3cc(C(F)(F)F)cc(C(F)(F)F)c3)ccc21: 8
[H]/N=C(\N)NN=C1CCCc2cc(OCCCCCCC)ccc21: 2
[H]/N=C(\N)NN=C1CCCc2cc(OCc3cccc(C(F)(F)F)c3)ccc21: 2

Hey, quick one: what's MBC for each of these?
1. [H]/N=C(\N)NN=C1CCCc2cc(OCc3ccc(F)c(Cl)c3)ccc21
2. [H]/N=C(\N)NN=C1CCCc2cc(OCc3ccccc3F)ccc21
3. [H]/N=C(\N)NN=C1CCCc2cc(OCc3ccc(F)cc3Cl)ccc21
4. [H]/N=C(\N)NN=C1CCCc2cc(OCc3ccc(C#N)cc3)ccc21

1. 8
2. 4
3. 4
4. 8

###

- Test system: clinical S. aureus isolate LMY48
- run description: MIC and MBC testing, broth microdilution
- Assay type: cell-based, Staphylococcus aureus
- test parameters: Staphylococcus aureus; LMY48; read-out: MBC
measured attribute: MBC (µg/mL)
Answers are plain numbers, in µg/mL.

Sample records with MBC:
[H]/N=C(\N)NN=C1CCCc2cc(OCCCC)ccc21: 2
[H]/N=C(\N)NN=C1CCCc2cc(OCc3ccc(F)cc3)ccc21: 4
[H]/N=C(\N)NN=C1CCCc2cc(OCCCCCC)ccc21: 32
[H]/N=C(\N)NN=C1CCCc2cc(OCCCCCCCC)ccc21: 2

In the following, a different compound is considered.
Name the reported MBC value associated with the compound `[H]/N=C(\N)NN=C1CCCc2cc(OCCCCCCCCC)ccc21` 2

###

- Test system: clinical S. aureus isolate LMY45
- run description: MIC and MBC testing, broth microdilution
- Format: cell-based, Staphylococcus aureus
- test parameters: Staphylococcus aureus; LMY45; read-out: MBC
Rule: MBC below 8 µg/mL gives rule met. Equal to or above 8 µg/mL gives rule not met.

Observe how each entry below is paired with its result.
CC(C)=CCC/C(C)=C/COc1ccc2c(c1)CCC/C2=N\NC(=N)N: rule not met
[H]/N=C(\N)NN=C1CCCc2cc(OCc3cccc(F)c3)ccc21: rule met
[H]/N=C(\N)NN=C1CCCc2cc(OCCCCCCCCC)ccc21: rule met
[H]/N=C(\N)NN=C1CCCc2cc(OCc3cc(C(F)(F)F)cc(C(F)(F)F)c3)ccc21: rule not met
[H]/N=C(\N)NN=C1CCCc2cc(OCCCCCCCCCC)ccc21: rule not met
[H]/N=C(\N)NN=C1CCCc2cc(OCc3ccc(F)cc3Cl)ccc21: rule met
[H]/N=C(\N)NN=C1CCCc2cc(OCCCCCCC)ccc21: rule met
[H]/N=C(\N)NN=C1CCCc2cc(OCc3ccc(F)c(Cl)c3)ccc21: rule met
[H]/N=C(\N)NN=C1CCCc2cc(OCc3cc(F)ccc3F)ccc21: rule met
[H]/N=C(\N)NN=C1CCCc2cc(OCCCCC)ccc21: rule not met

Strictly below 8 µg/mL: is that where MBC of `[H]/N=C(\N)NN=C1CCCc2cc(OCc3ccc(F)c(F)c3)ccc21` sits? rule met

Strictly below 8 µg/mL: is that where MBC of `[H]/N=C(\N)NN=C1CCCc2cc(OCc3ccccc3F)ccc21` sits? rule met

Strictly below 8 µg/mL: is that where MBC of `[H]/N=C(\N)NN=C1CCCc2cc(OCc3cc(F)cc(F)c3)ccc21` sits? rule met

Strictly below 8 µg/mL: is that where MBC of `[H]/N=C(\N)NN=C1CCCc2cc(OCCCCCC)ccc21` sits? rule not met

Strictly below 8 µg/mL: is that where MBC of `[H]/N=C(\N)NN=C1CCCc2cc(OCC=C(C)C)ccc21` sits? rule met

Strictly below 8 µg/mL: is that where MBC of `[H]/N=C(\N)NN=C1CCCc2cc(OCc3cccc(C(F)(F)F)c3)ccc21` sits? rule met

Strictly below 8 µg/mL: is that where MBC of `[H]/N=C(\N)NN=C1CCCc2cc(OCc3ccc(Br)cc3)ccc21` sits? rule met
